Just for reference, patent US11292801B2 is where these values come from.

# study_system: Human Calpain 9/NS1 (Homo sapiens, UniProt O14815)
# Sequence (O14815 1-690): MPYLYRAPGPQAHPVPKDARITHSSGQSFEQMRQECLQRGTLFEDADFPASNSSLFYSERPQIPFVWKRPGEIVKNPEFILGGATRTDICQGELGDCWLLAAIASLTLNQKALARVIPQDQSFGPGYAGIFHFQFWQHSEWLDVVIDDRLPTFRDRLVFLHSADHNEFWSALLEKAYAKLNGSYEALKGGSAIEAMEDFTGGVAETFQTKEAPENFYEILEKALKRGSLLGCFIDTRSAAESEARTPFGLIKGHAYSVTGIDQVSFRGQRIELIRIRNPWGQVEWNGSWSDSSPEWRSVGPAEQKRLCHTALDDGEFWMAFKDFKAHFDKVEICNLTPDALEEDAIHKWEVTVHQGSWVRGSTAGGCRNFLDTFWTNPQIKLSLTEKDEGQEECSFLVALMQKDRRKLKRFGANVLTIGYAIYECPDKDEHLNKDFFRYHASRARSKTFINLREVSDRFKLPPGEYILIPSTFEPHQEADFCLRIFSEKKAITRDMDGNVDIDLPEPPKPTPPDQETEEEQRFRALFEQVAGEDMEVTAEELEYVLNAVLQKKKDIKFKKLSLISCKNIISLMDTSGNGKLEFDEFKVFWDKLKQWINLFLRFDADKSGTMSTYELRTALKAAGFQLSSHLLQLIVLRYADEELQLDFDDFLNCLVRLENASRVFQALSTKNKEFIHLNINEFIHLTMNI
# Sequence (P04632 1-268 partner): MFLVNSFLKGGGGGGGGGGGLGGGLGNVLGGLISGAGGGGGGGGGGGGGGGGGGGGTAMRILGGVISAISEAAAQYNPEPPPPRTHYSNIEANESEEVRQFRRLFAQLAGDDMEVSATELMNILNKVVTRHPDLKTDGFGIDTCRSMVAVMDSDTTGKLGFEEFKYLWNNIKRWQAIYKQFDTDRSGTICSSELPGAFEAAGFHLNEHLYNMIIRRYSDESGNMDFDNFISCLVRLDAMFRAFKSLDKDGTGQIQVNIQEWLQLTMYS
# experiment: Biochemical inhibition of calpain 9, continuous fluorescence (FRET substrate) assay
# measurement_context: mean, read-out: Human Calpain 9/NS1 IC50 (nM)_MEAN
Here the recorded IC50 is given for each entry.

Observe how each entry below is paired with its result.
compound="O=C(NCc1c(F)cccc1Cl)C(=O)C1CCCCOCCOCc2ccccc2C(=O)N1 (stereo not drawn) [Compound 107]" study_system="Human Calpain 9/NS1 (Homo sapiens, UniProt O14815)" result="3000 to 10000 nM"
compound="O=C[C@@H]1CCCCCCOCc2ccccc2C(=O)N1 [Compound 42]" study_system="Human Calpain 9/NS1 (Homo sapiens, UniProt O14815)" result="< 3000 nM"
compound="CC(C)NC(=O)C(=O)[C@@H]1CCCCOCCOCc2ccccc2C(=O)N1 [Compound 52]" study_system="Human Calpain 9/NS1 (Homo sapiens, UniProt O14815)" result="> 10000 nM"

Recorded IC50 (compound O=C[C@@H]1CCCCOCCOc2ccccc2C(=O)N1 [Compound 19] ): 3000 to 10000 nM

Recorded IC50 (compound COCCOCCOCCNC(=O)C(=O)C1CCCCOCCOCc2ccccc2C(=O)N1 (stereo not drawn) [Compound 122] ): > 10000 nM

Recorded IC50 (compound O=C[C@@H]1Cc2cccc(c2)CCCOCc2ccccc2C(=O)N1 [Compound 32] ): < 3000 nM

Recorded IC50 (compound O=C[C@@H]1CCCCCCCCCc2ccccc2C(=O)N1 [Compound 16] ): < 3000 nM

Recorded IC50 (compound Cc1cc2n(n1)-c1cccc(c1)OCCCCC[C@@H](C(=O)C(N)=O)NC2=O [Compound 141] ): < 3000 nM

Recorded IC50 (compound CN(C)CCNC(=O)C(=O)C1CCCCOCCOCc2ccccc2C(=O)N1 (stereo not drawn) [Compound 110] ): 3000 to 10000 nM

Recorded IC50 (compound O=C[C@@H]1C/C=C\COCCOCc2ccccc2C(=O)N1 [Compound 1] ): < 3000 nM

Recorded IC50 (compound O=C(NCc1cccnc1)C(=O)C1CCCCOCCOCc2ccccc2C(=O)N1 (stereo not drawn) [Compound 103] ): < 3000 nM
